- Tested on: up to 32 different microorganisms
- Experiment notes: in vitro antibacterial activity (MIC), agar dilution on Brain Heart Infusion (BHI) agar with Steers replicator
- Format: cell-based
- Particulars: Staphylococcus aureus CMX 553 (code FF); unit assumed
- Procedure: Representative compounds of the present invention were assayed in vitro for antibacterial activity as follows: Twelve petri dishes containing successive aqueous dilutions of the test compound mixed with 10 mL of sterilized Brain Heart Infusion (BHI) agar (Difco 0148-01-5) were prepared. Each plate was inoculated with 1:100 (or 1:10 for slow-growing strains, such as Micrococcus and Streptococcus) dilutions of up to 32 different microorganisms, using a Steers replicator block. […]
Reported property: MIC (µg/mL)

1) CCC1OC(=O)C(C)C(=O)C(C)C(OC2OC(C)CC(N(C)C)C2O)C(C)(OCC=Cc2cnc3ccccc3c2)CC(C)C(=O)C(C)C2N(CC=Cc3cnc4ccccc4c3)C(=O)OC12C (stereo not drawn) = 1.56
2) CC[C@H]1OC(=O)[C@H](C)C(=O)[C@H](C)[C@@H](O[C@@H]2O[C@H](C)C[C@H](N(C)C)[C@H]2O)[C@@](C)(OCC=Cc2ccccc2)C[C@@H](C)C(=O)[C@H](C)[C@H]2NC(=O)O[C@@]21C = 0.1
3) CCC1OC(=O)C(C)C(=O)C(C)C(OC2OC(C)CC(N(C)C)C2O)C(C)(OCC=Cc2cccnc2)CC(C)C(=O)C(C)C2NC(=O)OC12C (stereo not drawn) = 0.1
4) C=CCO[C@@]1(C)C[C@@H](C)C(=O)[C@H](C)[C@H]2N(C)C(=O)O[C@]2(C)[C@@H](CC)OC(=O)[C@H](C)C(=O)[C@H](C)[C@H]1O[C@@H]1O[C@H](C)C[C@H](N(C)C)[C@H]1O = 6.2
5) CC[C@H]1OC(=O)[C@H](C)C(=O)[C@H](C)[C@@H](O[C@@H]2O[C@H](C)C[C@H](N(C)C)[C@H]2O)[C@@](C)(OCCNCc2ccncc2)C[C@@H](C)C(=O)[C@H](C)[C@@H](O)[C@]1(C)O = 6.2
6) CC[C@H]1OC(=O)[C@H](C)C(=O)[C@H](C)[C@@H](O[C@@H]2O[C@H](C)C[C@H](N(C)C)[C@H]2O)[C@@](C)(OCCNCCc2ccccc2)C[C@@H](C)C(=O)[C@H](C)[C@@H](O)[C@]1(C)O = 6.2
7) CC[C@H]1OC(=O)[C@H](C)C(=O)[C@H](C)[C@@H](O[C@@H]2O[C@H](C)C[C@H](N(C)C)[C@H]2O)[C@@](C)(OCC=Cc2cnc3ccccc3c2)C[C@@H](C)C(=O)[C@H](C)[C@H]2NC(=O)O[C@@]21C = 0.1
8) CC[C@H]1OC(=O)[C@H](C)C(=O)[C@H](C)[C@@H](O[C@@H]2O[C@H](C)C[C@H](N(C)C)[C@H]2O)[C@@](C)(OCCN)C[C@@H](C)C(=O)[C@H](C)[C@@H](O)[C@]1(C)O = 50
9) C=CCOC1(C)CC(C)C(=NO)C(C)C(O)C(C)(O)C(CC)OC(=O)C(C)C(=O)C(C)C1OC1OC(C)CC(N(C)C)C1O (stereo not drawn) = 3.1
